System: OVCAR-5
Assay: NCI tumour cell line growth inhibition, 48 h
Calls of active or inactive are those of the source. Cut-off read from the data, not from the text of the source: active = GI50 up to about 1.1 µM and inactive = higher.
Consider the following molecules and their measured GI50 readings.
metric: GI50

molecule=CCNC(=S)NNC(=O)c1csc(NC(=S)NC2CCCCC2)n1 assayvalue="26.9 µM (inactive)"
molecule=COC(=O)C1(C(=O)OC)Cc2ccc(OC)cc2C2=C1C(=O)c1ccccc1C2=O assayvalue="6.01 µM (inactive)"
molecule="CC(=O)C(N1CCCCC1)C(O)(C(F)(F)F)C(F)(F)F (stereo not given)" assayvalue="> 100 µM (inactive)"
molecule=Clc1ccc(Cc2nc3ccccc3nc2-c2cccc(Br)c2)cc1 assayvalue="4.19 µM (inactive)"
molecule=C[n+]1c(-c2ccc(/C=N\N3CCN(/N=C/c4ccc(-c5cn6ccccc6[n+]5C)cc4)CC3)cc2)cn2ccccc21 assayvalue="> 100 µM (inactive)"
